tested target: PDGFR beta (Homo sapiens, UniProt P09619)
Construct: endogenous in cells; host or cells: HS27 human fibroblast cell line
Sequence (P09619 33-1106): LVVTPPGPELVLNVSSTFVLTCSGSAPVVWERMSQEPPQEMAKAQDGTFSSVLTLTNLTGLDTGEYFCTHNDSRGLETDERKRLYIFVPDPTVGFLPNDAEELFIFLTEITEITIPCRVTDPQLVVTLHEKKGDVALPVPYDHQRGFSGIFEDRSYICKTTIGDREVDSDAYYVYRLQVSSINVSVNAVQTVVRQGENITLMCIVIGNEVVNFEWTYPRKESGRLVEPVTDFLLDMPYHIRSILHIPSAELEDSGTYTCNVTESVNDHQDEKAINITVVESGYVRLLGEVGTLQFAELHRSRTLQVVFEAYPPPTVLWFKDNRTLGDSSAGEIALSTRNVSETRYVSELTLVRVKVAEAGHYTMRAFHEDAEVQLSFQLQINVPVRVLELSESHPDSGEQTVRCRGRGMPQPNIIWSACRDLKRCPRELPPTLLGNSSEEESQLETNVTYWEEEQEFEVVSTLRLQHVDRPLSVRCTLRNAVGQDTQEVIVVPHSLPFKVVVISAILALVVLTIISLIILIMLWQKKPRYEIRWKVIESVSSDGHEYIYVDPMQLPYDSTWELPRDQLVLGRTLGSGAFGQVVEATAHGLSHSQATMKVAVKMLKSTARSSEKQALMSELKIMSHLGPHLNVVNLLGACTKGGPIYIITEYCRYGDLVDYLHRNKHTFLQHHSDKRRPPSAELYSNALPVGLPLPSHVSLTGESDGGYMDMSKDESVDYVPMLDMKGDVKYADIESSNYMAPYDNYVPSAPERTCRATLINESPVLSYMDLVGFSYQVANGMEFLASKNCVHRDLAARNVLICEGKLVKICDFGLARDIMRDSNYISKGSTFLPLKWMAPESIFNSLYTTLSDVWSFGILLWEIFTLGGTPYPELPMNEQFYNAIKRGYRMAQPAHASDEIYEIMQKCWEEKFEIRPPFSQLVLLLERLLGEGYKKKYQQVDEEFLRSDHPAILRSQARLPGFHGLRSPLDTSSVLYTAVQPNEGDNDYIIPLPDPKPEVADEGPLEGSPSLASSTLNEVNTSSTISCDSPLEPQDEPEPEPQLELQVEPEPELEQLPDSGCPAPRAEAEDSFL
procedure summary: Phospho PDGFR LICOR Cell Assay (Example B)
Type: cell-based
run conditions: averaged IC50; PDGFR beta phosphorylation in HS27 human fibroblast cell line, PDGF-BB stimulation 10 minutes, normalized to total ERK
Counter-ions that a name gives are not always drawn.
Overview of reported log10 of IC50 across a group of compounds:
Plainly stated, the numbers are log10 of IC50 given in µM.

Worked set:
INSERT INTO results (compound, endpoint_value) VALUES
  ('COc1ccc2ncc(C(=O)Nc3cccc4c3cnn4Cc3ccccc3)n2c1 [Example 159]', -1.19),
  ('CC(C)c1cccc(Cn2ncc3c(NC(=O)c4cnc5cc(OCCN6CCN(C)CC6)ccn45)cccc32)n1 [Example 138]', -2.72),
  ('Cc1nn(Cc2cc(C)n(C(C)C)n2)c2cccc(NC(=O)c3cnc4cc(OCCN5CCN(C(C)C)CC5)ccn34)c12 [Example 10]', -1.39);

Look up log10 of IC50: NC(=O)c1ccc2ncc(C(=O)Nc3cccc4c3cnn4Cc3ccccc3)n2c1 [Example 160]
-0.15

Look up log10 of IC50: Cc1nn(Cc2ccn(C(C)C)n2)c2cccc(NC(=O)c3cnc4cc(OCCN5CCN(C)CC5)ccn34)c12 [Example 48, bis hydrochloride]
-1.32

Look up log10 of IC50: CN1CCN(CCOc2ccn3c(C(=O)Nc4cccc5c4cnn5Cc4cccc(C(F)(F)F)c4)cnc3c2)CC1 [Example 98, dihydrochloride]
-2.24

Look up log10 of IC50: CN1CCN(CCOc2ccn3c(C(=O)Nc4cccc5c4cnn5Cc4ccccc4)cnc3c2)CC1 [Example 153]
-2.30

* * *

tested target: cFMS (Homo sapiens, UniProt P07333)
Construct: THP-1 cells (human acute monocytic leukemia cell line) were serum-starved for 4 hours; endogenous in cells
Sequence (P07333 20-972): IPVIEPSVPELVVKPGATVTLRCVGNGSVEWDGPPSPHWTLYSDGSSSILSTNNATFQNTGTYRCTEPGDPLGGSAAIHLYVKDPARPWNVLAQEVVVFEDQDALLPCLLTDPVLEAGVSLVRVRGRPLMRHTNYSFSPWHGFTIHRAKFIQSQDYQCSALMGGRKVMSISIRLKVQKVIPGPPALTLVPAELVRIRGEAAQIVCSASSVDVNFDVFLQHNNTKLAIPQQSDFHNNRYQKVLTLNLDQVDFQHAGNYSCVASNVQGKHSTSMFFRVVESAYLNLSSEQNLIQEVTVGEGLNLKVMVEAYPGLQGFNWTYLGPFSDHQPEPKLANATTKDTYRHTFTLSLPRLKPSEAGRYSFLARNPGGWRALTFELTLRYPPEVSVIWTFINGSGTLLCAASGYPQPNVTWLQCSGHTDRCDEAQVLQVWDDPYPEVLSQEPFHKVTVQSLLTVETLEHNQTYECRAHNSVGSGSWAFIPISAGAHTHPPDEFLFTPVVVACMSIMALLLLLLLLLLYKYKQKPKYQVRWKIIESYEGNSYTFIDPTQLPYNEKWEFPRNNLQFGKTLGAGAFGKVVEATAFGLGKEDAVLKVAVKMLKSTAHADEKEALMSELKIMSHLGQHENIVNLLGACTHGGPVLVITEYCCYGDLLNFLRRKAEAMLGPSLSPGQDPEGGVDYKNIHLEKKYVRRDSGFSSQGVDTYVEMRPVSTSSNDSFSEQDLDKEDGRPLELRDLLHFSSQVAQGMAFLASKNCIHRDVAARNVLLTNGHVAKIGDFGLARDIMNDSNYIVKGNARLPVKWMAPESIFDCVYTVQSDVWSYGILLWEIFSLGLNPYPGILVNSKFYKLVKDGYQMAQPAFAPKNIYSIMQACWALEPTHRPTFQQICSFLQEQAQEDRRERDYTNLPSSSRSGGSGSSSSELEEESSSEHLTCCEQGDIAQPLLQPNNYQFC
procedure summary: cFMS Cell-Based Assay (Example C)
run conditions: averaged IC50; phospho-cFMS in THP-1 cells stimulated with 250 ng/mL recombinant human MCSF; read-out: cFMS Cell ELISA IC50
pIC50: −log10 of the molar value. Where a name gives a salt, the structure may show the parent alone.
Use 8 as the dividing line for pIC50, with the line itself on the Criterion met side and lower values as Criterion not met.

Below, 5 compounds whose answers are already recorded.
INSERT INTO measurements (compound, classification) VALUES
  ('COCCOc1ccn2c(C(=O)Nc3cccc4c3c(C)nn4CC3CC3)cnc2c1 [Example 84]', 'Criterion not met'),
  ('Cc1nn(Cc2cccc(C(C)C)n2)c2cccc(NC(=O)c3cnc4cc(OCCN5CC6(COC6)C5)ccn34)c12 [Example 5]', 'Criterion not met'),
  ('COCCOc1ccn2c(C(=O)Nc3cccc4c3cnn4CCc3ccccc3)cnc2c1 [Example 151]', 'Criterion not met'),
  ('COCCOc1ccn2c(C(=O)Nc3cccc4c3cnn4CC3CCOCC3)cnc2c1 [Example 113]', 'Criterion not met'),
  ('Cc1nn(Cc2csc(C(C)C)n2)c2cccc(NC(=O)c3cnc4cc(OCCN5CC6(COC6)C5)ccn34)c12 [Example 14]', 'Criterion not met');

Record COCCOc1ccn2c(C(=O)Nc3c(Cl)ccc4c3cnn4Cc3ccccc3)cnc2c1 [Example 137] ; criterion: pIC50 no lower than 8. Met?
Criterion met

Record CN1CCN(CCOc2ccn3c(C(=O)Nc4cccc5c4cnn5Cc4cccc(C(F)(F)F)c4)cnc3c2)CC1 [Example 98, dihydrochloride] ; criterion: pIC50 no lower than 8. Met?
Criterion not met

Record O=C(Nc1cccc2c1cnn2CC1CCCCO1)c1cnc2ccccn12 (stereo not shown) [Example 128] ; criterion: pIC50 no lower than 8. Met?
Criterion not met

Record O=C(Nc1cccc2c1cnn2Cc1ccccc1)c1cnc2cc(O)ccn12 [Example 92] ; criterion: pIC50 no lower than 8. Met?
Criterion not met

Record Cc1cccc(Cn2nc(C)c3c(NC(=O)c4cnc5cc(-c6cnn(C)c6)ccn45)cccc32)n1 [Example 68] ; criterion: pIC50 no lower than 8. Met?
Criterion met

Record Cc1cccc(Cn2nc(C)c3c(NC(=O)c4cnc5cc(CCN(C)C)ccn45)cccc32)n1 [Example 72] ; criterion: pIC50 no lower than 8. Met?
Criterion not met

Record CC(=O)c1ccn2c(C(=O)Nc3cccc4c3c(C)nn4Cc3cccc(C)n3)cnc2c1 [Example 79] ; criterion: pIC50 no lower than 8. Met?
Criterion not met

Record Cc1nn(Cc2cc(C)n(C(C)C)n2)c2cccc(NC(=O)c3cnc4cc(OCCN5CC6(CN(C)C6)C5)ccn34)c12 [Example 8] ; criterion: pIC50 no lower than 8. Met?
Criterion not met

* * *

tested target: PDGFR beta (Homo sapiens, UniProt P09619)
Construct: endogenous in cells; host or cells: HS27 human fibroblast cell line
procedure summary: Phospho PDGFR LICOR Cell Assay (Example B)
Type: cell-based
run conditions: averaged IC50; PDGFR beta phosphorylation in HS27 human fibroblast cell line, PDGF-BB stimulation 10 minutes, normalized to total ERK
Where a name gives a salt, the structure may show the parent alone.
measurement name: pIC50
Scale explanation: pIC50 corresponds to minus log10 of a concentration expressed in moles per litre.

Worked set:
INSERT INTO results (molecule, measurement_name, endpoint_value) VALUES
  ('Cc1cccc(Cn2nc(C)c3c(NC(=O)c4cnc5cc(OCC(O)CO)ccn45)cccc32)n1 (stereo not shown) [Example 58]', 'pIC50', 6.04),
  ('CN1CCN(CCOc2ccn3c(C(=O)Nc4cccc5c4cnn5Cc4cn(C)cn4)cnc3c2)CC1 [Example 106, dihydrochloride]', 'pIC50', 6.25),
  ('CCOc1cccc(Cn2ncc3c(NC(=O)c4cnc5cc(OCCN6CCN(C)CC6)ccn45)cccc32)n1 [Example 105]', 'pIC50', 8.59);

Now for a further molecule.
Look up pIC50: O=C(Nc1cccc2c1cnn2Cc1ccccc1)c1cnc2ccc(C(O)CO)cn12 (stereo not shown) [Example 158]
5.62

* * *

tested target: PDGFR beta (Homo sapiens, UniProt P09619)
Construct: endogenous in cells; host or cells: HS27 human fibroblast cell line
procedure summary: Phospho PDGFR LICOR Cell Assay (Example B)
Format: cell-based
run conditions: averaged IC50; PDGFR beta phosphorylation in HS27 human fibroblast cell line, PDGF-BB stimulation 10 minutes, normalized to total ERK
measurement name: pIC50
Scale explanation: pIC50 corresponds to minus log10 of a concentration expressed in moles per litre.

Worked set:
INSERT INTO measurements (chemical_string, measurement_name, endpoint_value) VALUES
  ('COc1ccn2c(C(=O)Nc3cccc4c3cnn4Cc3ccccc3)cnc2c1', 'pIC50', 8.68),
  ('COCCOc1ccn2c(C(=O)Nc3cccc4c3cnn4Cc3cccc(OCc4ccccc4)c3)cnc2c1', 'pIC50', 7.76),
  ('Cc1nn(Cc2csc(C(C)C)n2)c2cccc(NC(=O)c3cnc4cc(OCCN5CCN(C(C)C)CC5)ccn34)c12', 'pIC50', 7.34),
  ('Cc1nn(Cc2ccn(C(C)C)n2)c2cccc(NC(=O)c3cnc4cc(OCCN5CCN(C(C)C)CC5)ccn34)c12', 'pIC50', 8.01),
  ('Cc1nn(Cc2csc(C(C)C)n2)c2cccc(NC(=O)c3cnc4cc(OCCN5CC6(COC6)C5)ccn34)c12', 'pIC50', 7.44),
  ('COCCOc1ccn2c(C(=O)Nc3cccc4c3cnn4Cc3cccc(C(N)=O)c3)cnc2c1', 'pIC50', 7.19);

Now for a further molecule.
Look up pIC50: COc1cccc(Cn2nc(C)c3c(NC(=O)c4cnc5cc(OCCN6CCN(C)CC6)ccn45)cccc32)n1
7.11

* * *

tested target: PDGFR beta (Homo sapiens)
Construct: endogenous in cells; host or cells: HS27 human fibroblast cell line
procedure summary: Phospho PDGFR LICOR Cell Assay (Example B)
Format: cell-based
run conditions: averaged IC50; PDGFR beta phosphorylation in HS27 human fibroblast cell line, PDGF-BB stimulation 10 minutes, normalized to total ERK
measurement name: pIC50
Scale explanation: pIC50 corresponds to minus log10 of a concentration expressed in moles per litre.

Worked set:
INSERT INTO measurements (compound, tested_target, measurement_name, endpoint_value) VALUES
  ('COCCOc1ccn2c(C(=O)Nc3cccc4c3cnn4Cc3cccnc3C)cnc2c1', 'PDGFR beta (Homo sapiens)', 'pIC50', 6.75),
  ('COCCOc1ccn2c(C(=O)Nc3cccc4c3cnn4CC3CCCN(C(C)=O)C3)cnc2c1 (stereo not shown)', 'PDGFR beta (Homo sapiens)', 'pIC50', 6.77),
  ('N#Cc1ccn2c(C(=O)Nc3cccc4c3cnn4Cc3ccccc3)cnc2c1', 'PDGFR beta (Homo sapiens)', 'pIC50', 6.53);

Look up pIC50: CN1CCN(CCOc2ccn3c(C(=O)Nc4cccc5c4cnn5Cc4cccc(C#N)c4)cnc3c2)CC1
8.19

* * *

tested target: PDGFR beta (Homo sapiens, UniProt P09619)
Construct: endogenous in cells; host or cells: HS27 human fibroblast cell line
procedure summary: Phospho PDGFR Cell Assay, sandwich ELISA (Example A)
Type: cell-based
run conditions: averaged IC50, PDGFR beta phosphorylation in HS27 human fibroblast cell line, PDGF-BB stimulation 5 minutes
Overview of reported pIC50 across a group of molecules:
Scale explanation: pIC50 corresponds to minus log10 of a concentration expressed in moles per litre.

INSERT INTO assay_data (chemical_string, endpoint_value) VALUES
  ('Cc1nn(Cc2ccc(C(C)C)cn2)c2cccc(NC(=O)c3cnc4cc(OCCN5CCN(C)[C@@H](C)C5)ccn34)c12', 7.17),
  ('CCc1cccc(Cn2nc(C)c3c(NC(=O)c4cnc5cc(OCCN6CCN(C)[C@@H](C)C6)ccn45)cccc32)n1', 7.18),
  ('CC(C)N1CCN(CCOc2ccn3c(C(=O)Nc4cccc5c4c(F)nn5Cc4cccc(C5CC5)n4)cnc3c2)CC1', 7.75),
  ('CCN1CCN(CCOc2ccn3c(C(=O)Nc4cccc5c4c(C)nn5Cc4cccc(C5CC5)n4)cnc3c2)CC1', 7.07);

Look up pIC50: Cc1nn(Cc2cccc(C(C)C)n2)c2cccc(NC(=O)c3cnc4cc(OCCN5CCN[C@@H](C)C5)ccn34)c12
7.67

Look up pIC50: Cc1nn(Cc2cccc(C3CC3)n2)c2cccc(NC(=O)c3cnc4cc(OCCN5CCN(C)C(C)(C)C5)ccn34)c12
7.36
